# Test system: Mycobacterium tuberculosis
# assay-comment: Cornell M. t heat shock assay; further: in the data most compounds retested in dose-response had high values
# Format: functional, organism-based
# Design: dose or concentration left out as unconfirmed
In all, about 69,000 compounds went through this assay and about 950 (1.4%) showed an effect of 50% or more. Only a selection was taken, and strong results are over-represented in it overall.
Assignment: determine reported Percent Effect for the given compounds.
Answer in %, number only, no unit symbol.

Entry CC(C)NC(=O)[C@H]1C[C@@H]2CN(C(=O)NCCc3ccccc3)C[C@H]1O2 , system Mycobacterium tuberculosis: what Percent Effect was measured?
-3.811

So what Percent Effect did CC(C)c1nn(C)c(N(C)C)c1CNC1CCOc2c(F)cccc21.Cl (centres undefined) get with Mycobacterium tuberculosis?
0.8128

Item: CN1C[C@@H]2CC[C@H](CC1=O)N2C(=O)c1cc2ccccc2[nH]c1=O Test system: Mycobacterium tuberculosis Read-out: Percent Effect Value: ?
6.279

# get_value(readout= Percent Effect, system= Mycobacterium tuberculosis) for Cc1ccc(CN2C[C@@H](OCc3ccccn3)[C@H]3COC[C@H]32)o1.O=C(O)C(F)(F)F.O=C(O)C(F)(F)F
4.099

====

# Tested on: Mycobacterium tuberculosis
# assay-comment: Cornell M. t heat shock assay; further: in the data most compounds retested in dose-response had high values
# Assay type: functional, organism-based
# Design: dose or concentration left out as unconfirmed
Hit rate of the full screen: of about 69,000 compounds, about 950 (1.4%) showed an effect of 50% or more. The sample holds strong results, similar compounds and a random draw of the others, so the mix is not that of the screen.
Please respond with reported Percent Effect for every item in the list.
Show the value, then the unit it is measured in.

Which Percent Effect is reported with Mycobacterium tuberculosis for this entry: CCOC1COC2(CCN(C(=O)c3cccc(C)n3)CC2)C1.O=C(O)C(F)(F)F (stereo not drawn) ?
18.32%

Query the reported Percent Effect for Mycobacterium tuberculosis; item: CN(Cc1cccc(F)c1)C(=O)CS(=O)(=O)Cc1c(Cl)cccc1Cl
25.49%

Notebook entry, Mycobacterium tuberculosis assay: Percent Effect of Cc1cc(CN2C[C@H](OCC3CCOCC3)[C@H]3COC[C@H]32)oc1C.O=C(O)C(F)(F)F = ?
5.146%

Item: Cc1ccc(N2CC[C@H]3C[C@@H](C(=O)N4CCOCC4)O[C@H]3C2)nn1.O=C(O)C(F)(F)F Test system: Mycobacterium tuberculosis Read-out: Percent Effect Value: ?
9.789%

Lookup: Percent Effect / Mycobacterium tuberculosis / Cc1cc(-c2nccs2)nc(C2CCN(Cc3ccncc3)CC2)n1.Cl
-12.67%

Request body: readout Percent Effect, system Mycobacterium tuberculosis, query CCC1=N[C@@]2(CC[C@@H]3CN(Cc4ccc(Cl)cc4)C[C@@H]32)C(=O)N1.O=C(O)C(F)(F)F . Return the value.
4.216%

Query for Mycobacterium tuberculosis: what Percent Effect does the record show for O=C(O)C(F)(F)F.O=C(O)C(F)(F)F.O=C1COC2(CCN(Cc3ccncc3)CC2)CN1c1ccccc1 ?
-2.605%

Provide the documented Percent Effect with Mycobacterium tuberculosis as the system for O=C(NCc1ccccn1)[C@]12COC[C@H]1CN(Cc1cccnc1)C2.O=C(O)C(F)(F)F.O=C(O)C(F)(F)F.O=C(O)C(F)(F)F
-8.191%

====

What Percent Effect was measured for each of the following?
# Tested on: Mycobacterium tuberculosis
# assay-comment: Cornell M. t heat shock assay; further: in the data most compounds retested in dose-response had high values
# Format: functional, organism-based
# Design: dose or concentration left out as unconfirmed
The campaign covered roughly 69,000 compounds. About 950 (1.4%) showed an effect of 50% or more. The list comes from a sample in which strong results are over-represented; it also holds close analogues and randomly drawn compounds.
Could you give the number and then its unit, please?

Report Percent Effect for CC(C)N(C)Cc1cncc2c1CCN(CC1CC1)C2.Cl.Cl.Cl please.
9.593%

I'd like to know its Percent Effect. The molecule in question is COCc1nc2cc(NCc3ccncc3)ccc2o1
47.84%

State the recorded Percent Effect for this entry: CN(Cc1nccs1)c1nc(-c2ccccn2)nc2c1CCNCC2
47.94%

Bench note: what Percent Effect did CCC(C)S(=O)(=O)N1CCc2nc(C3CCNCC3)ncc2C1.Cl (stereo unspecified) show?
-3.075%

Please report the recorded Percent Effect for CN(Cc1cccnc1)c1nc(-c2ccccn2)nc2c1CCNCC2 .
7.828%

Give its Percent Effect value. Item: COCCN1CCC2(CCCN(c3ncccn3)C2)C1.O=C(O)C(F)(F)F (stereo unspecified)
-80.98%

Fill in: Percent Effect of CNC(=O)[C@@]12CCO[C@@H]1CCN(S(=O)(=O)c1cccnc1)C2.O=C(O)C(F)(F)F is ___
3.091%

Entry COC(=O)CCc1c(C)nc2cc(O)nn2c1C has what Percent Effect?
-4.051%

Which Percent Effect is listed for Cc1ccc(C(=O)N2CCC3(CC2)COC(COc2cccnc2)C3)o1.O=C(O)C(F)(F)F (stereo unspecified) ?
-31.88%

I'd like to know its Percent Effect. The molecule in question is COCc1nc2cc(NCc3ccc(CO)o3)ccc2o1
-21.34%

I would be grateful if you could share the reported Percent Effect for CN1CCC2(CC1)CC(NC(=O)c1csnn1)c1ccccc1O2.O=C(O)C(F)(F)F (stereo unspecified) .
76.95%
